- system-under-test: CypD (Homo sapiens)
Kd by entry:

Before answering, review these 4 worked examples.
Input: // lookup Kd for CSc1ccccc1[C@H]1CCCN1C(=O)C(=O)NCCc1ccc2c(c1)[C@H]1C[C@@H](N2)[C@H](O)CO1
Output: 10 to 100 µM

Input: // lookup Kd for O=C(NCCc1ccccc1)C(=O)NCCc1ccc2c(c1)[C@@H]1C[C@H](N2)[C@H](O)CO1
Output: 10 to 100 µM

Input: // lookup Kd for O=C(NCCc1cccc(C(F)(F)F)c1)C(=O)NCCc1ccc2c(c1)[C@H]1C[C@@H](N2)[C@H](O)CO1
Output: < 10 µM

Input: // lookup Kd for CC(C)CNC(=O)C(=O)NCCc1ccc2c(c1)[C@H]1C[C@@H](N2)[C@H](O)CO1
Output: < 10 µM

---
Input: // lookup Kd for O=C(NCc1ccc2c(c1)[C@@H]1C[C@H](N2)[C@H](O)CO1)C(=O)NC1CCCC1
Output: 10 to 100 µM

Input: // lookup Kd for O=C(NCCc1ccc2c(c1)[C@H]1C[C@@H](N2)[C@H](O)CO1)C(=O)NCc1cccc(C(F)(F)F)c1
Output: 10 to 100 µM

Input: // lookup Kd for O=C(NCCc1ccccc1)C(=O)NCCc1ccc2c(c1)[C@H]1C[C@@H](N2)[C@H](O)CO1
Output: < 10 µM

====

IC50 by entry:
- system-under-test: CypD (Homo sapiens, UniProt P30405)
- Sequence (P30405 30-207): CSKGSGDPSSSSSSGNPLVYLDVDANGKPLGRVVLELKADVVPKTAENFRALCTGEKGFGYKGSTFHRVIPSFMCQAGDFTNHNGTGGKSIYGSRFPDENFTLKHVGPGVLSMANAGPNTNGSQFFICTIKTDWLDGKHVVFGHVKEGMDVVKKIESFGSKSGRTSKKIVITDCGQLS

Input: Find IC50 (CypD (Homo sapiens, UniProt P30405)) for the entry CSc1ccccc1[C@H]1CCCN1C(=O)C(=O)NCCc1ccc2c(c1)[C@H]1C[C@@H](N2)[C@H](O)CO1
Output: 10 to 100 µM

---
Input: Find IC50 (CypD (Homo sapiens, UniProt P30405)) for the entry O=C(NCCc1cccc(C(F)(F)F)c1)C(=O)NCCc1ccc2c(c1)[C@@H]1C[C@H](N2)[C@H](O)CO1
Output: 10 to 100 µM

Input: Find IC50 (CypD (Homo sapiens, UniProt P30405)) for the entry O=C(NCc1ccc2c(c1)[C@@H]1C[C@H](N2)[C@H](O)CO1)C(=O)NC1CCCC1
Output: 10 to 100 µM

Input: Find IC50 (CypD (Homo sapiens, UniProt P30405)) for the entry CC(C)CNC(=O)C(=O)NCCc1ccc2c(c1)[C@H]1C[C@@H](N2)[C@H](O)CO1
Output: < 10 µM
